These data points were gathered from the domain aggregation screens of Martell et al. (2025).

# METHOD_DESCRIPTION: soluble fraction after stress (log2 fold change); higher = more stays soluble; pooled small domains, quantitative proteomics
# DETAILS: stress: pH 4
# thresholds on soluble fraction (log2) define classes: lower level = under -0.5, middle level = from -0.5 up to -0.08, upper level = -0.08 and over

Worked examples, 4 sequences total:
>>> print(df.to_string())
                             entry_sequence   class_label
0  HMGKRGKEMQTAVLAILRASDRPYSAYELLESLKDIYPKIAPPTVYRALAALTQRGQIRRLESLNAFI   upper level
1  HMTMVVIMNADATQADIEGVISAIEEKGLEAKVMEGAHQKIVGVIGDKTKLAATPLDAMHGVETTVAIS   upper level
2  HMIHMNMGQKINQLRLQKGFTLEELGNLVGVGKSTVRKWENGMIANMKRDKILLVAEALDTSPAYLMGWD  middle level
3  HMPMDDETWDALSLFAYKRYARENGWPLMIGAEALRDTFASYFPLDSSTWQDRSSHYLTYQDGIYTRT   lower level

Which category fits this record: HMVNGEFIDRIKVILQENNATRKKDRLTKTRMYQLLQEEGYEGSYSAFTYQVRIIEEELGINNK
upper level

Lab log: HMERYLLRDNIPNALHGERLDRVIAIMTGLSRSAVSALIKSNQVLRNGQIAQSISEKVVEGDELEVHLEP — assign soluble fraction (log2) category
middle level

Class? Entry: HMDDIVFPNPTKNQINVSIDGLKNIYNLSGKLLISTNDKIIDVSILKAGVYFINTNEQFYKFVK
lower level

The entry to classify is HMLNLNILTDKEKFIAKLISRGLSDSLIAKELYISISTVRSHVNSIYGKTNIKNRSHLASSFLYFELGNLL ; which class holds it?
upper level

Where would HMEKINLLVENNDNYRLDKIIALNMEELSRTQIQEMIGQGLVLVNGKVEKASYKTKLNDQIEITIED land among the classes by reported soluble fraction (log2)?
middle level

Kindly state the category for this sequence: HMPSDLQATLRAVQGMLQGVEGVDARLAGQRILLEGDSADARARERAAAIAGIFPGVVIDFVG
upper level
